Hi there, I'd appreciate the recorded ELISA value (wash 3x every hour for 4 HRS) for every entry that follows.
- system: T1, Proleukin® (aldesleukin) (human, UniProt P60568 21-153, limits assumed)
- T1 construct: Variant of human wt IL-2 with C145S (C125S on mature IL-2); also called IL-2 (Proleukin®); human IL-2 (Proleukin)
- T1 sequence (P60568 other isoform, or with tags, fused parts or gaps limits assumed): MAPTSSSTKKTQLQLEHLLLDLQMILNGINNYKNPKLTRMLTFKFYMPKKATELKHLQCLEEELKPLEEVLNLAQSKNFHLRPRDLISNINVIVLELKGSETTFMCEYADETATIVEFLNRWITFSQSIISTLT
- test_name: ELISA, coated Proleukin, HEK293F supernatant 1:2
One number for each entry, in luminescence signal.

Recorded results for 2 binders are shown here.
>>> experimental_result("Antibody No: 8 (antibody, human IgG1, kappa, N297A, V domains shown, VK A50S; also called 108923) VH: EVQLVQSGAEVKKPGESLKISCKGSGYAFTNYLIEWVRQMPGKGLEWMGVINPGSGGTNYNEKFKGQVTISADKSISTAYLQWSSLKASDTAMYYCARWRGEGYYAYYDVWGQGTTVTVSS VL: AIRLTQSPSSFSASTGDRVTITCKASQSVDYQGDSYMNWYQQKPGKAPKLLIYSASNLESGVPSRFSGSGSGTDFTLTISSLQSEDFATYYCQQSNEDPYTFGGGTKVEIKR")
7310
>>> experimental_result("Antibody No: 32 (antibody, human IgG1, kappa, N297A, V domains shown, VK M33L; HEK293F supernatant) VH: EVQLVQSGAEVKKPGESLKISCKGSGYAFSNYLIEWVRQMPGKGLEWMGVINPGSGGTYYNEKFKGQVTISADKSISTAYLQWSSLKASDTAMYYCARWRGEGYYAYYDVWGQGTTVTVSS VL: AIRLTQSPSSFSASTGDRVTITCKASQSVDYQGDSYLNWYQQKPGKAPKLLIYAASNLESGVPSRFSGSGSGTDFTLTISSLQSEDFATYYCQQSNEDPYTFGGGTKVEIKR")
6210

Here is the next item to consider.
Per the records, this binder ( Antibody No: 13 (antibody, human IgG1, kappa, N297A, V domains shown, VH N58Y; VK A50S; also called 108925) VH: EVQLVQSGAEVKKPGESLKISCKGSGYAFTNYLIEWVRQMPGKGLEWMGVINPGSGGTYYNEKFKGQVTISADKSISTAYLQWSSLKASDTAMYYCARWRGEGYYAYFDVWGQGTTVTVSS VL: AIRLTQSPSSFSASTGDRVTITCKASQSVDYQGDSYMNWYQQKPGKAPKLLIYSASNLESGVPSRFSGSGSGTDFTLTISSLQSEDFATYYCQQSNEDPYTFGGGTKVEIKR ) has ELISA value (wash 3x every hour for 4 HRS) equal to 14600
